Molecular target: Endothelial lipase (EL) (Homo sapiens (Human))
Sequence (Q9Y5X9 21-500): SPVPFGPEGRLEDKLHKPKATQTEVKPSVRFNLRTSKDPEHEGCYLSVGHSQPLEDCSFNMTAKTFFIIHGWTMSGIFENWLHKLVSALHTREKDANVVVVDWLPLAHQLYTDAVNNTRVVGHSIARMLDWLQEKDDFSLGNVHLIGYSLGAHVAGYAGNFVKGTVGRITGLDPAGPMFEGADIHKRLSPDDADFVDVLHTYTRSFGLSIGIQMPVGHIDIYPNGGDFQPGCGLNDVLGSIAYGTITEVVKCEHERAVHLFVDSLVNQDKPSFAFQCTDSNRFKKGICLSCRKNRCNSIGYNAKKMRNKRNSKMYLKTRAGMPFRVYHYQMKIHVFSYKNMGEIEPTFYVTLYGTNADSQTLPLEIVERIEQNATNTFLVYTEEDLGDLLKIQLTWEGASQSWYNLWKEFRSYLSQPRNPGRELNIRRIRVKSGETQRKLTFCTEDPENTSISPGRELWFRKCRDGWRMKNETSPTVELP
Assay: EL assay: endothelial lipase activity with fluorescent substrate A10070 in DMPG vesicles
Type: biochemical
Experimental: Endothelial lipase (EL) and hepatic lipase (HL) activities were measured using a fluorescent substrate, A10070, (Invitrogen, CA) doped into an artificial vesicle containing DMPG (Avanti Polar Lipids) as the excipient. […] The enzymatic assay was measured using 384-well white Optiplates. […] The reaction rates were measured on a Gemini plate reader with an excitation wavelength of 490 nm and an emission wavelength of 530 nm. […]
Recorded IC50 by entry
endpoint.label: IC50

[
  {
    "molecule": "CS(=O)(=O)C(C(=O)NCCS(N)(=O)=O)c1nc2cc(-c3ccnc(F)c3)ccc2s1 (stereo not drawn) [Example B95]",
    "result": "< 10 nM"
  },
  {
    "molecule": "COCCS(=O)(=O)C(C(=O)NCCS(N)(=O)=O)c1nc2ccc(-c3ccnc(OC)c3)cc2s1 (stereo not drawn)",
    "result": "< 10 nM"
  },
  {
    "molecule": "CC1CCN(C(=O)c2ccc(-c3ccc4nc(C(C(=O)NCCS(N)(=O)=O)S(C)(=O)=O)sc4c3)cc2)CC1 (stereo not drawn)",
    "result": "< 10 nM"
  }
]

Source listed as patent US8987314B2.
